# test-system: Tyrosine-protein kinase JAK3 (Homo sapiens);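 note: values reported are mean percent inhibition of JAK3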
# measurement-setup: at 0.1 µM
reported-property: inhibition
Include the unit after the number when you answer.

Tell me the measured inhibition of Cc1ccc(Nc2ccnc(Nc3cccc(C(N)=O)c3)n2)cc1O , please. -4.07%

Which measured inhibition value corresponds to ON=C1CCc2cc(-c3nc(C4CCNCC4)[nH]c3-c3ccncc3)ccc21 ? -1.58%

Reported inhibition, compound COc1ccc(-c2nn3ncccc3c2-c2ccnc(Nc3cccc(C(F)(F)F)c3)n2)cc1 : ____ -3.85%

Data request, read-out inhibition, for C[C@@H](Oc1cc(-n2cnc3ccc(OC[C@@H](O)CO)cc32)sc1C(N)=O)c1ccccc1Cl -0.17%

Please give the measured inhibition for this compound: Oc1cccc(-c2nc(-c3ccccc3)[nH]c2-c2ccncc2)c1 0.73%

Endpoint output: inhibition of N#Cc1c(NC(=O)c2ccccc2F)sc2c1CCCC2 . Value? -1.04%

Find the recorded inhibition belonging to COc1cc(Nc2nccc(-c3cnn4ncccc34)n2)cc(OC)c1 and report it. 7.71%

Which inhibition value is on record for CS(=O)(=O)CCNCc1nc(-c2ccc3ncnc(Nc4ccc(OCc5cccc(C(F)(F)F)c5)cc4)c3c2)cs1 ? -0.8%

What value of inhibition has been recorded for this entry: NS(=O)(=O)c1ccc(-c2cc3ccncc3cc2OCc2ccccc2)cc1 -0.75%

Request the reported inhibition associated with Cc1nc(-c2ccccc2)n2nc(NCCCN3CCOCC3)ncc12 -2.38%

Which value of inhibition has been reported for FC(F)(F)c1ccc(-c2nn3ncccc3c2-c2ccnc(Nc3ccc4c(c3)OCCO4)n2)cc1 in the records? 6.03%

Reported inhibition for CCS(=O)(=O)c1ccc(OC)c(Nc2ncc(-c3cccc(OC)c3)o2)c1 : what is it? -1.19%

Report inhibition for Cc1cc(Cl)cc2c1NC(=O)C2=NNc1ccc(S(N)(=O)=O)cc1 please. -0.31%

Can you share its inhibition? I mean this compound: CN(C)C(=O)O[C@@H]1CN[C@@H](C#Cc2cc3ncnc(Nc4ccc(OCc5cccc(F)c5)c(Cl)c4)c3s2)C1 0.14%

Return reported inhibition; argument: CCOc1nccc2c1nc(-c1nonc1N)n2CC 0.47%

Would you kindly share the measured inhibition for CN(C)C(=O)O[C@H]1CN[C@H](C#Cc2cc3ncnc(Nc4ccc(OCc5cccc(F)c5)c(Cl)c4)c3s2)C1 ? -0.68%

Give its inhibition value. Item: COc1cc2ncnc(Nc3ccc(C)c(O)c3)c2cc1OC -1.17%

Which inhibition value belongs to CCCN1CCCC(c2ccc(Nc3nc(Nc4cc(F)ccc4C(N)=O)c4cc[nH]c4n3)c(OC)c2)C1 (configuration not stated) ? -1.48%

Which inhibition is reported for this compound? c1ccc(Nc2ncc(-c3ccccc3)o2)cc1 -1.29%

Returns the measured inhibition for the input compound. Input: c1ccc(Cc2nc3ccc(Nc4ncnc5ccccc45)cc3[nH]2)cc1 -1.75%

Entry under review: Cc1ccc(NC(=O)CC2CC2)cc1-c1ccc(C(=O)NCC2CC2)cc1 . Reported inhibition? -0.78%

Given the entry NS(=O)(=O)c1ccc(N/N=C2\C(=O)Nc3ccc(Cl)cc32)cc1 , report its measured inhibition. -2.01%

So what does the record say about inhibition for Nc1nccc(-c2c(-c3ccc(F)cc3)ncn2CCCN2CCOCC2)n1 ? -0.85%

Using the record for COc1cc2ncnc(Nc3ccc4c(cnn4Cc4ccccc4)c3)c2cc1OC , report its inhibition. -1.67%

Fill in the blank: the reported inhibition of C[C@@H](Oc1cc(-n2cnc3ccc(OCC4CCN(C)CC4)cc32)sc1C(N)=O)c1ccccc1C(F)(F)F is ____. -0.8%

GET /values?readout=inhibition&item= CC(C)c1ccc2c(c1)NC(=O)/C2=N/Nc1ccc(S(N)(=O)=O)cc1 -0.51%

State the recorded inhibition for this entry: Cc1ccc2c(-c3ccnc(Nc4ccc5c(c4)OCCO5)n3)c(-c3ccc(C(F)(F)F)cc3)nn2n1 -2.23%

Give the measured inhibition of NC(=O)c1cccc(Nc2nccc(Nc3cccc(F)c3)n2)c1 . -1.62%

Fill in the blank: the reported inhibition of CN(C)CCCn1c(-c2nonc2N)nc2cnccc21 is ____. -1.68%

What does the record list as inhibition for CS(=O)(=O)Nc1cccc(-c2ccc3c(NC(=O)C4CC4)n[nH]c3c2)c1 ? -0.13%

// lookup inhibition for O=C1Nc2ccc(-c3cccnc3)cc2C1=Cc1cc(Br)c(O)c(Br)c1 -1.1%

May I ask what inhibition has been recorded for COC(=O)c1ccc2c(c1)C(=Cc1cc(Br)c(O)c(Br)c1)C(=O)N2 ? 1.39%

For the compound Nc1ccc(C#Cc2cncnc2Nc2ccc(OCc3cccc(F)c3)c(Cl)c2)cc1 , what inhibition is on record? -2.62%

Fill in the blank: the reported inhibition of CN(c1ccc(NC(=O)Nc2ccc(OC(F)(F)F)cc2)cc1)c1ccnc(Nc2cccc(S(N)(=O)=O)c2)n1 is ____. -2.38%

Could you share which inhibition value was measured for O=S(=O)(CCOCc1ccc(-c2ccc3ncnc(Nc4ccc(OCc5cccc(F)c5)c(Cl)c4)c3c2)o1)c1ccccc1 ? 0.16%

// returns reported inhibition for input CCn1c(-c2nonc2N)nc2ccc(F)cc21 -1.62%

Give its inhibition value. Item: COC(=O)c1cncc(/C=C/c2c(C)cc(O)cc2C)c1 -1.76%

---

# test-system: PAS domain-containing serine/threonine-protein kinase (Homo sapiens) (UniProt Q96RG2);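 note: reported value is the mean percent inhibition of PASK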
# Sequence (Q96RG2 whole entry, the tested form may be a part): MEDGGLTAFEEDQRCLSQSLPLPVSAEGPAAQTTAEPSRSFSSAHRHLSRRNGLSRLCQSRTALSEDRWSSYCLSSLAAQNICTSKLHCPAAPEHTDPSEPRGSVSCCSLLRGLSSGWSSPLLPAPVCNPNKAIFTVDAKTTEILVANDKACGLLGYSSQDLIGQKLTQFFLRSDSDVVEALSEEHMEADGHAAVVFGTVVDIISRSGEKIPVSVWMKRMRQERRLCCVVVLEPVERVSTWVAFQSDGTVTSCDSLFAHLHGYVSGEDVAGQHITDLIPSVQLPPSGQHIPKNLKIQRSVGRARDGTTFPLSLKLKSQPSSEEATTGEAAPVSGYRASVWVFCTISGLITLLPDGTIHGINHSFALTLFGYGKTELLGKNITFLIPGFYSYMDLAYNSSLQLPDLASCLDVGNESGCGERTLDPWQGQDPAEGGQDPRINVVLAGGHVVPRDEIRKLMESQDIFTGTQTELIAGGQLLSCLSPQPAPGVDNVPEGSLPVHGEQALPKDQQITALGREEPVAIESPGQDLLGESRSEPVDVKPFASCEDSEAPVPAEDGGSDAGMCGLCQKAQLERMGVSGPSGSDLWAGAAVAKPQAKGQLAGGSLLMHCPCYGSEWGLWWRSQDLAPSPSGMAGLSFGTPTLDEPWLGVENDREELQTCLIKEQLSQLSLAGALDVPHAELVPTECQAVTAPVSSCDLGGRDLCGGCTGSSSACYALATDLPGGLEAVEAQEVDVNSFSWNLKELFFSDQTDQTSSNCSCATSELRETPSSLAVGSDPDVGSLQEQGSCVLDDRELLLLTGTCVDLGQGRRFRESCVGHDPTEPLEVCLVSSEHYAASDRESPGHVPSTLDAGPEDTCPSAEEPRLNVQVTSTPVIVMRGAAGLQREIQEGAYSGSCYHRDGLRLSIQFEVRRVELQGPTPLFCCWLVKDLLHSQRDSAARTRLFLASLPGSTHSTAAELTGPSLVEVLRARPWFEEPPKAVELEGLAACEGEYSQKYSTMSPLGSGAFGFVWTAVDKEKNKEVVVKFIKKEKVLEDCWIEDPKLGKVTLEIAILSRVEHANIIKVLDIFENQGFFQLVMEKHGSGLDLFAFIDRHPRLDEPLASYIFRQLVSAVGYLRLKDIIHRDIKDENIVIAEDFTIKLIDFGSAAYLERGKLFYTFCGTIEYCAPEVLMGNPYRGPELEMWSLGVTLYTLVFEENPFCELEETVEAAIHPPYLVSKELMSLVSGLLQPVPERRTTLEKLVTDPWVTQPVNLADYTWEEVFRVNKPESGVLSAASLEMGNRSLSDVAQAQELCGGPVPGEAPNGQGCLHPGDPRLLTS
# measurement-setup: at 1 µM
reported-property: inhibition (%)
Write the answer as a number in %, unit excluded.

// map NS(=O)(=O)c1ccc(N/N=C2\C(=O)Nc3ccc(Cl)cc32)cc1 to recorded inhibition (system: PAS domain-containing serine/threonine-protein kinase (Homo sapiens) (UniProt Q96RG2)) 1.52

Value wanted: inhibition (PAS domain-containing serine/threonine-protein kinase (Homo sapiens) (UniProt Q96RG2)) of entry Cc1ccc2c(-c3ccnc(Nc4cccc(C(F)(F)F)c4)n3)c(-c3ccccc3)nn2n1 -0.17

PAS domain-containing serine/threonine-protein kinase (Homo sapiens) (UniProt Q96RG2) / inhibition / Nc1nccc(C#Cc2cncnc2Nc2ccc(OCc3cccc(F)c3)c(Cl)c2)n1 : value? -3.04

Any idea what inhibition came out for COC(=O)c1ccc2c(c1)C(=Cc1cc(Br)c(O)c(Br)c1)C(=O)N2 on PAS domain-containing serine/threonine-protein kinase (Homo sapiens) (UniProt Q96RG2)? -0.51

Quick check: inhibition on PAS domain-containing serine/threonine-protein kinase (Homo sapiens) (UniProt Q96RG2), item COC(=O)Nc1nc2cc(Oc3ccc(NC(=O)Nc4cccc(Br)c4)cc3)ccc2[nH]1 ? 1.67

---

Provide the reported inhibition of each item.
# test-system: 5'-AMP-activated protein kinase catalytic subunit alpha-2 (Homo sapiens) (UniProt P54646);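 note: mean inhibition measured on the AMPK complex of alpha2, beta1 and gamma1 subunits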
# Sequence (P54646 whole entry, looked up): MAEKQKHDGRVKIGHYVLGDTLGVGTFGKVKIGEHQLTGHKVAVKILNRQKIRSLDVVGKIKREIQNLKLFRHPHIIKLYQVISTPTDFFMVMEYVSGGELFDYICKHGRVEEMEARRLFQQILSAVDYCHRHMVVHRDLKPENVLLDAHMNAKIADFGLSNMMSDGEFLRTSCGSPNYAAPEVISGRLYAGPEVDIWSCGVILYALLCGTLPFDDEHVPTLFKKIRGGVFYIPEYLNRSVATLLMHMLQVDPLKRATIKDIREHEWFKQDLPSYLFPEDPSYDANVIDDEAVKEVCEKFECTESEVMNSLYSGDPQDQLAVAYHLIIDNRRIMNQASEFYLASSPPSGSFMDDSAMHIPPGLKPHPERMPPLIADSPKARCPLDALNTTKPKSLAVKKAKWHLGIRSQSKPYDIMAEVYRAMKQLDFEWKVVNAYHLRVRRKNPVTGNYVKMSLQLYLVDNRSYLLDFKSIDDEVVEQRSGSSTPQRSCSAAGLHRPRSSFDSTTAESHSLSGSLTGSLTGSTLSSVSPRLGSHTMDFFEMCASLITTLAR
# measurement-setup: at 0.1 µM
# Description: GSK_PKIS: AMPKA2 (A2B1G1) mean inhibition at 0.1 uM [Nanosyn]
Write the value in % as a bare number.

Record request: inhibition value, item CCn1c(-c2nonc2N)nc2c(C#CC(C)(C)O)nc(OCCNC)cc21 4.37

For the compound shown here, Cc1ccc(C(=O)NC2CC2)cc1-c1ccc2[nH]ncc2c1 , give the reported inhibition. 0.12

What inhibition value was documented for this compound, ON=C1CCc2cc(-c3nc(C4CCNCC4)[nH]c3-c3ccncc3)ccc21 ? -1.32

Recorded inhibition of COc1ccc2ncnc(Nc3ccc(OCc4ccccc4)cc3)c2c1 , please. 0.53

Name the reported inhibition value associated with the compound C[C@@H](Oc1cc(-n2cnc3ccc(OC[C@@H](O)CO)cc32)sc1C(N)=O)c1ccccc1Cl 0.26

# lookup: inhibition of N#Cc1c(NC(=O)c2ccccc2F)sc2c1CCCC2 1.26

Param item = COc1cccc(-n2ncc3c(N/N=C/c4ccc(C)cc4)ncnc32)c1 ; retrieve measured inhibition. 7.16

What value of measured inhibition is listed for c1ccc(Nc2ncc(-c3ccccc3)o2)cc1 ? 7.1

Quick one: inhibition of COC(=O)c1ccc2c(c1)C(=Cc1cc(Br)c(O)c(Br)c1)C(=O)N2 ? 8.21

Which value of inhibition has been reported for [O-][S+]1CCN(Cc2ccc(-c3ccc4ncnc(Nc5ccc(OCc6ccccc6)c(Cl)c5)c4c3)o2)CC1 in the records? 2.56

Record request: inhibition value, item CN(C)C(=O)O[C@H]1CN[C@H](C#Cc2cc3ncnc(Nc4ccc(OCc5cccc(F)c5)c(Cl)c4)c3s2)C1 1.83

Reported inhibition for COc1ccc(-c2nn3ncccc3c2-c2ccnc(Nc3cccc(C(F)(F)F)c3)n2)cc1 : what is it? 1.06

Look up inhibition: NS(=O)(=O)c1ccc(N/N=C2\C(=O)Nc3ccc(Cl)cc32)cc1 1.86

inhibition lookup needed for CC(C)c1ccc(Nc2nccc(-c3cnn4ncccc34)n2)cc1 , thanks. 2.35

Dear colleague, I am looking for the recorded inhibition of the following compound: CN(c1ccc(NC(=O)Nc2ccc(OC(F)(F)F)cc2)cc1)c1ccnc(Nc2cccc(S(N)(=O)=O)c2)n1 -1.16

Given COc1cccc(-n2ncc3c(N/N=C/c4ccc(S(C)(=O)=O)cc4)ncnc32)c1 , state its recorded inhibition. 3.56

Can you look up the measured inhibition of Nc1nccc(-c2c(-c3ccc(F)cc3)nn3cc(C(F)(F)F)ccc23)n1 for me? 0.94

Any idea what inhibition was measured for Cc1ccc2c(-c3ccnc(Nc4cccc(C(F)(F)F)c4)n3)c(-c3ccccc3)nn2n1 ? 5.96

Quick one: inhibition for NS(=O)(=O)c1cccc(Nc2cc(-c3ccc(F)cc3)n[nH]2)c1 ? 2.4

Please give the measured inhibition for this compound: c1ccc(Cc2nc3ccc(Nc4ncnc5ccccc45)cc3[nH]2)cc1 -0.36

Name the reported inhibition value associated with the compound CCn1c(-c2nonc2N)nc2ccc(F)cc21 4.08

So what's the measured inhibition for this one? COc1cc2ncn(-c3cc(OCc4ccccc4S(C)(=O)=O)c(C#N)s3)c2cc1OC 5.84

Query: inhibition; subject: COC(=O)Nc1nc2cc(Oc3ccc(NC(=O)Nc4cccc(Br)c4)cc3)ccc2[nH]1 0.56

May I ask what inhibition has been recorded for NC(=O)c1sc(-n2cnc3ccccc32)cc1OCc1ccccc1Br ? 7.19

Fill blank: measured inhibition of the compound COc1cc2ncnc(Nc3ccc(C)c(O)c3)c2cc1OC is ____. 3.32

For the compound shown here, OCc1ccc(-c2nc(-c3ccccn3)c(-c3ccc4c(c3)OCO4)[nH]2)cc1 , give the reported inhibition. 2.09

Name the recorded inhibition for NS(=O)(=O)c1ccc(-c2cc3ccncc3cc2OCc2ccccc2)cc1 . 0.66

Consider the compound shown here: COc1cccc(-n2nc(C)c3c(N/N=C(\C)c4ccncc4)ncnc32)c1 What is its recorded inhibition? 2.15

Recorded inhibition of COc1cc2ncnc(Nc3ccc4c(cnn4Cc4ccccc4)c3)c2cc1OC , please. 5.92

Suppose we examine the compound CCOc1nccc2c1nc(-c1nonc1N)n2CC ; what inhibition value has been reported? 2.19

# lookup: inhibition of FC(F)(F)c1ccc(-c2nn3ncccc3c2-c2ccnc(Nc3ccc4c(c3)OCCO4)n2)cc1 5.75

Entry COc1cc(/C=N/Nc2ncnc3c2cnn3C(C)C)ccc1O : reported inhibition = ? 3.01

What value of inhibition has been reported for the following compound? CS(=O)(=O)Nc1cccc(-c2ccc3c(NC(=O)C4CC4)n[nH]c3c2)c1 -0.32

Would you kindly share the measured inhibition for Cc1ccc2c(c1)/C(=N/Nc1ccc(S(N)(=O)=O)cc1)C(=O)N2 ? 0.59

Fill in: inhibition of O=S(=O)(CCOCc1ccc(-c2ccc3ncnc(Nc4ccc(OCc5cccc(F)c5)c(Cl)c4)c3c2)o1)c1ccccc1 is ___ 4.55

Consider the compound CCCN1CCCC(c2ccc(Nc3nc(Nc4cc(F)ccc4C(N)=O)c4cc[nH]c4n3)c(OC)c2)C1 (configuration not stated) and give its measured inhibition. 4.5

Param item = Cc1nc(-c2ccccc2)n2nc(NCCCN3CCOCC3)ncc12 ; retrieve measured inhibition. 3.08

Form field: reported inhibition of Cc1ccc2c(-c3ccnc(Nc4ccc5c(c4)OCCO5)n3)c(-c3ccc(C(F)(F)F)cc3)nn2n1 0.13

Name the reported inhibition value associated with the compound NS(=O)(=O)c1ccc(NC=C2C(=O)Nc3ccc4ncsc4c32)cc1 24

GET /values?readout=inhibition&item= NS(=O)(=O)c1cccc(-c2cc3ccncc3cc2OCc2ccccc2)c1 -0.75

Which inhibition value is on record for Cc1ccc(O)cc1Nc1ccnc2ccc(S(C)(=O)=O)cc12 ? 3.06

Consider the compound shown here: Cc1cc(Cl)cc2c1NC(=O)C2=NNc1ccc(S(N)(=O)=O)cc1 What is its recorded inhibition? -0.13
